# System: mutEGFR (D770_N771insSVD) (Homo sapiens (Human), UniProt P00533, INS770SVD)
# Sequence (P00533 other isoform, or with tags, fused parts or gaps ins SVD behind 770): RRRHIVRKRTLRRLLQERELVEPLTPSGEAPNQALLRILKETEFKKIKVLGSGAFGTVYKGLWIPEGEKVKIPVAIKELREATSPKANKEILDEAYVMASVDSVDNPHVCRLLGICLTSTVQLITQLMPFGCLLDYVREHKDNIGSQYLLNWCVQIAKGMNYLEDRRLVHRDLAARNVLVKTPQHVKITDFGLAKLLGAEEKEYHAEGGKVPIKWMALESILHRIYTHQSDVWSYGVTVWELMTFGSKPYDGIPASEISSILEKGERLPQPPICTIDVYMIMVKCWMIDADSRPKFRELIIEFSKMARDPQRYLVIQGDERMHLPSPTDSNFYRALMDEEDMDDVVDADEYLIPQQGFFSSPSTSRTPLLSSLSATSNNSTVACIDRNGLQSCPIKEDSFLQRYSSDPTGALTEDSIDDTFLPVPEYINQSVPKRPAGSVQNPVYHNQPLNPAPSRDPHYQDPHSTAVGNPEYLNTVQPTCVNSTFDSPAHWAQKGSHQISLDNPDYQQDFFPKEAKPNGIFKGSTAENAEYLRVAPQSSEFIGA
# Assay Procedure: biochemical
# Test Settings: mutEGFR (D770_N771 insSVD) at 2 mM ATP IC50, 2 mM ATP
Bucketed by reported IC50, buckets being low: < 200 pM; intermediate: ≥ 200 pM and < 300 pM; high: ≥ 300 pM

Example entries begin here.
{"Compound": "COc1c(F)cccc1Nc1c(-c2ccncc2OC[C@H]2CCN2C)[nH]c2c1C(=O)NCC2", "System": "mutEGFR (D770_N771insSVD) (Homo sapiens (Human), UniProt P00533, INS770SVD)", "Category Label": "high"}
{"Compound": "O=C1NCCc2[nH]c(-c3ccncc3OCC3COC3)c(Nc3cccc(F)c3Cl)c21", "System": "mutEGFR (D770_N771insSVD) (Homo sapiens (Human), UniProt P00533, INS770SVD)", "Category Label": "low"}
{"Compound": "CCc1c(Cl)cccc1Nc1c(-c2ccncc2OCC2(C)CCO2)[nH]c2c1C(=O)NCC2 (stereo not shown)", "System": "mutEGFR (D770_N771insSVD) (Homo sapiens (Human), UniProt P00533, INS770SVD)", "Category Label": "intermediate"}

Returns: class label. Input: Cc1cccc(Nc2c(-c3ccncc3OCC3(C)CCO3)[nH]c3c2C(=O)NCC3)c1Cl (single isomer, unassigned; (+)) [Example 56]
low

Returns: class label. Input: COc1c(Cl)cc(F)cc1Nc1c(-c2ccncc2OCC2(C)CCO2)[nH]c2c1C(=O)NCC2 (single isomer, unassigned) [Example 70]
low

Returns: class label. Input: Cc1cccc(Nc2c(-c3ccncc3OCC3(C)CCO3)[nH]c3c2C(=O)NCC3)c1Cl (single isomer, unassigned; (-)) [Example 57]
intermediate

Returns: class label. Input: CCN1CC[C@H]1COc1cnccc1-c1[nH]c2c(c1Nc1cccc(Cl)c1OC)C(=O)NCC2
high

Returns: class label. Input: Cc1c(Cl)cccc1Nc1c(-c2ccncc2OCC2(C)CCO2)[nH]c2c1C(=O)NCC2 (racemic) [Example 80]
low

Returns: class label. Input: Cc1c(F)cccc1Nc1c(-c2ccncc2OCC2(C)CCO2)[nH]c2c1C(=O)NCC2 (racemic) [Example 83]
intermediate

Returns: class label. Input: CCC1(COc2cnccc2-c2[nH]c3c(c2Nc2cccc(C)c2Cl)C(=O)NCC3)COC1
low

Returns: class label. Input: CCC1(COc2cnccc2-c2[nH]c3c(c2Nc2cccc(F)c2OC)C(=O)NCC3)COC1
low

Returns: class label. Input: Cc1c(F)cccc1Nc1c(-c2ccncc2OCC2(C)CCO2)[nH]c2c1C(=O)NCC2 (single isomer, unassigned; (-)) [Example 84]
low

Returns: class label. Input: COc1c(Cl)cc(F)cc1Nc1c(-c2ccncc2OCC2(C)CCO2)[nH]c2c1C(=O)NCC2 (racemic) [Example 68]
intermediate

---

This section presents compounds with their documented pIC50 values.
# Test system: Ba/F3-EGFR-D770_N771 insSVD C797S
# Assay Procedure: Ba/F3 cell survival assay, EGFR D770_N771insSVD C797S
# Format: cell-based
# Test Settings: Ba/F3 EGFR-D770-N771ins_SVD, 48 h, read-out: BA/F3 (EGFR 0770_N771 insSVD C797S) IC50
pIC50 here is simply -log10 of the concentration when that concentration is written in mol/L.

Consider the following illustrative entries.
{"Compound": "COc1c(Cl)cccc1Nc1c(-c2ccncc2OCC2OCC2(C)C)[nH]c2c1C(=O)NCC2 (single isomer, unassigned; (+)) [Example 50]", "Measured Parameter": "pIC50", "Quantitative Result": 7.45}
{"Compound": "COc1c(Cl)cccc1Nc1c(-c2ccncc2OC[C@@H]2CCO2)[nH]c2c1C(=O)NCC2 [Example 2]", "Measured Parameter": "pIC50", "Quantitative Result": 7.76}
{"Compound": "COc1c(Cl)cccc1Nc1c(-c2ccncc2OCCC2CCO2)[nH]c2c1C(=O)NCC2 (single isomer, unassigned; (-)) [Example 26]", "Measured Parameter": "pIC50", "Quantitative Result": 7.86}

// recorded pIC50 for COc1c(Cl)cccc1Nc1c(-c2ccncc2OCC2(C)CCO2)[nH]c2c1C(=O)NCC2 (single isomer, unassigned; (+)) [Example 48] : 7.78

The measured values listed here are drawn from patent US20240307362A1.
